Cited source for all entries: patent US20140186359A1

The following binders are listed with their measured ADCC cytotoxic activity (51Cr release) against MIAPaCa-2 values.
Biological target: T1, human CAPRIN-1 expressed on the surface of human cancer cells (human, UniProt Q14444 2-709); note: test concentration or dose not given here
T1 sequence: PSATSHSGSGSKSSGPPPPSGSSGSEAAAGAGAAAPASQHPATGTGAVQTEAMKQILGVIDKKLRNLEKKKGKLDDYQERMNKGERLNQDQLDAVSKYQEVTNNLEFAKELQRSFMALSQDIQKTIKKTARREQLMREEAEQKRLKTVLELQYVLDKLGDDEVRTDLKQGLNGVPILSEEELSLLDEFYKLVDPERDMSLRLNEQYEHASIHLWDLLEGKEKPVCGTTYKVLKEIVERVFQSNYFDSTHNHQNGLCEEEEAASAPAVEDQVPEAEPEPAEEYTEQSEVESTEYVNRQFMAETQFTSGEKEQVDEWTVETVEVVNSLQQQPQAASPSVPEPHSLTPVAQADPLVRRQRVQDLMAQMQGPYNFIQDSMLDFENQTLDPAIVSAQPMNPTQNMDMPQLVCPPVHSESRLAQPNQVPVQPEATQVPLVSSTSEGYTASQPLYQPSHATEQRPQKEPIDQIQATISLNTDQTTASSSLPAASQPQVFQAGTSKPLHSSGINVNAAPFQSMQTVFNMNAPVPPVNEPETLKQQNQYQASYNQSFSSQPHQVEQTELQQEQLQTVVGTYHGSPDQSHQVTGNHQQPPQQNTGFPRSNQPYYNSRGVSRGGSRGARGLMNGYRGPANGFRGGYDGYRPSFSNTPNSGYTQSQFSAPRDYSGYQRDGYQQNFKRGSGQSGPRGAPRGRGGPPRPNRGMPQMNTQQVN
Assay: cell-based or functional assay
Measured endpoint: ADCC cytotoxic activity (51Cr release) against MIAPaCa-2

- Binder: "human-chicken chimeric monoclonal antibody #2 (antibody, V domains shown) VH: AVTLDESGGGLQTPGGALSLVCKASGFTFRSHSMFWVRQAPGKGLEYVAGIYGVGRSIRYGSAVKGRATMSRDNGQSTVRLQLNNLRAEDTGTYYCAKSGYFSNRRYWDSGAYFIDAWGHGTEVIVS VL: ALTQPASVSANLGGTVEITCSGGYSNYGWYQQKSPGSAPVTVIYYNDKRPSDIPSRFSGSKSGSTGTLTITGVRAEDEAVYYCGGYDSSTDAGIFGAGTTLTV"
  Result: "≥ 28%"
- Binder: "human-chicken chimeric monoclonal antibody #3 (antibody, V domains shown) VH: AVTLDESGGGLQTPGGGLSLVCKGSGFTFSSFGMFWVRQAPGKGLEFVASISDNGRSTYYGSAVKGRATISRDDGQSTVRLQLNNLRAEDTGTYYCAKNAYVGRGCCFSYSIDAWGHGTEVIVS VL: ALTQPASVSVNPGETVKITCSGGGSSSDAYGWYQQKSPGSAPVTLIYNGSNRPSHIPSRFSGSTSGSTNTLTITGVQVEDEAIYFCGSTDTSTSVGIFGAGTTLTV"
  Result: "≥ 28%"
- Binder: "human-mouse chimeric monoclonal antibody #1 (antibody, V domains shown) VH: GPGLVQPSQSLSITCTVSGFSLTTYDLHWVRQSPGKGLEWLGVIWSGGSTDYNAAFISRLSISKDNSKSQVFFKMNSLQANDTAIYYCARNYGYSAWFAYWGQGTLVTVSA VL: DVLMTQTPLSLPVSLGDQASISCRSSQSIVHSNGNTYLEWYLQKPGQSPKLLIYKVSNRFSGVPDRFSGSGSGTDFTLKISRVEAEDLGVYYCFQGSHVPLTFGAGTKLELKR"
  Result: "≥ 28%"
- Binder: "human-chicken chimeric monoclonal antibody #4 (antibody, V domains shown) VH: AVTLDESGGGLQTPGGAVSLVCKGSGFTFSSYGMGWVRQAPGKGLEYVAAIRKDGSTNYGPAVKGRATISRDNGQSTVRLQLSNLRAEDTATYYCAKRSHTGVNAAKIDAWGRGTEVIVS VL: ALTQPASVSANPGETVKITCSGASHNYGWFQQKSPGSAPVTVIYSNDKRPSDIPSRFSGSKSGSTATLTITGVQADDEAVYFCGGYNIYGPTFGAGTTLTV"
  Result: "≥ 28%"
- Binder: "human-mouse chimeric comparative monoclonal antibody 4 (antibody, human IgG1, kappa, V domains shown) VH: EVQLHQFGAELVKPGASVKISCKASGYTFTDYNMDWVKQSHGKSLEWIGDINPNYDSTSYNQKFKGKATLTVDKSSSTAYMELRSLTSEDTAVYYCARSRSYDYEGFAYWGQGTLVTVSA VL: SGDRVSLSCRASQSISNYLHWYQQKSHESPRLLIKYASQSISGIPSRFSGSGSGTDFTLSINSVETEDFGMYFCQQSNSWPYTFGAGTKLEIKQ"
  Result: "7%"
